Record set: Ki | Tyrosine-protein kinase JAK2 (Homo sapiens, UniProt O60674) | literature, multiple sources.

Guide cases for Ki, answers given:
[
  {
    "compound": "N#Cc1cccc(F)c1-c1cc(-n2ccc(N3CCOC[C@@H](O)C3)n2)c2c(n1)CNC2=O",
    "readout": "Ki",
    "result": "10 to 100 nM"
  },
  {
    "compound": "C[C@H](Nc1nc(-c2c[nH]c3ncncc23)nc(N2CCCC2)n1)C(=O)NCC(F)(F)F",
    "readout": "Ki",
    "result": "> 5000 nM"
  },
  {
    "compound": "CN1CCO[C@@H]2CN(c3ccn(-c4cc(-c5c(F)cccc5C#N)nc5c4C(=O)NC5)n3)C[C@@H]21",
    "readout": "Ki",
    "result": "0.1 to 10 nM"
  }
]

Readout Ki for Oc1c(F)cc(C2Nc3ccccc3-c3ccnc4[nH]cc2c34)cc1F (stereo not drawn) , test system Tyrosine-protein kinase JAK2 (Homo sapiens, UniProt O60674), was < 250 nM

Readout Ki for CCNC(=O)[C@](C)(O)c1ccc(Nc2nc(-c3c(F)cccc3F)nc3c2C(=O)NC3)cc1 , test system Tyrosine-protein kinase JAK2 (Homo sapiens, UniProt O60674), was 100 to 1000 nM

Readout Ki for Oc1ccc(C2Nc3ccccc3-c3ccnc4[nH]cc2c34)cc1C(F)(F)F (stereo not drawn) , test system Tyrosine-protein kinase JAK2 (Homo sapiens, UniProt O60674), was 250 to 2500 nM

Readout Ki for COCCNc1nc(N[C@@H](C)c2ccc(F)cc2)cc(-c2c(N)nn3cccnc23)n1 , test system Tyrosine-protein kinase JAK2 (Homo sapiens, UniProt O60674), was < 10 nM

Readout Ki for O=C1NCc2nc(-c3c(F)cccc3F)nc(Nc3ccc([C@@H](O)C(F)(F)F)cc3)c21 , test system Tyrosine-protein kinase JAK2 (Homo sapiens, UniProt O60674), was 10 to 100 nM

Readout Ki for CC1(c2ccc(Nc3cc(-c4c(F)cccc4F)nc4c3C(=O)NC4)nc2)CC(C)(C)N(C2=CCOCC2)C1=O (stereo not drawn) , test system Tyrosine-protein kinase JAK2 (Homo sapiens, UniProt O60674), was ≤ 10 nM

Readout Ki for C[C@H](Nc1cc(-c2c(N)nn3ccc(C(F)(F)F)nc23)ncn1)c1ccc(F)cc1 , test system Tyrosine-protein kinase JAK2 (Homo sapiens, UniProt O60674), was 10 to 100 nM

Readout Ki for CC1O[C@H]2CN(c3ccn(-c4cc(-c5c(F)cccc5C#N)nc5c4C(=O)NC5)n3)C[C@H]2O1 (stereo partly drawn) , test system Tyrosine-protein kinase JAK2 (Homo sapiens, UniProt O60674), was 10 to 100 nM

Readout Ki for C[C@H](Nc1cc(N2CCOCC2)nc(-c2c[nH]c3ncncc23)n1)C(=O)NCC(F)(F)F , test system Tyrosine-protein kinase JAK2 (Homo sapiens, UniProt O60674), was > 5000 nM

Readout Ki for CC(C)[C@H](C(=O)NCC(F)(F)F)n1ccc2cnc(-c3c[nH]c4ncncc34)nc21 , test system Tyrosine-protein kinase JAK2 (Homo sapiens, UniProt O60674), was < 500 nM

Readout Ki for CCNC(=O)[C@@](O)(CC(F)(F)F)c1ccc(Nc2nc(-c3c(F)cccc3F)nc3c2C(=O)NC3)cc1 , test system Tyrosine-protein kinase JAK2 (Homo sapiens, UniProt O60674), was 100 to 1000 nM

Readout Ki for CC[C@H](Nc1cc(-c2cnn3cccnc23)ncn1)c1ccc(F)c(F)c1 , test system Tyrosine-protein kinase JAK2 (Homo sapiens, UniProt O60674), was < 10 nM
